Tested on: K-562 leukemia
ASSAY: NCI tumour cell line growth inhibition, 48 h
EXPERIMENTAL_READOUT: TGI

>>> print(df.to_string())
                                    compound  experimental_readout  experimental_value
 0  Nc1c(C(=O)Nc2cccc(Cl)c2Cl)sc2nc3c(cc12)C(=O)CCC3                   TGI            > 100 µM
 1  C[C@@H](Nc1nc(Nc2ccc(F)c(Cl)c2)nc2ccccc12)C1CC1                   TGI             9.75 µM
 2  O=C(CCCCC(=O)N/N=C\c1ccccc1O)N/N=C\c1ccccc1O                   TGI            > 100 µM
 3  Cc1sc2nc3n(c(=O)c2c1C)N=CN(c1ccc(F)cc1)C3                   TGI            > 100 µM
 4  COc1cc(NC(=O)C2=C(N3CCOCC3)/C(=C/c3ccc(Cl)cc3)CC2)cc(OC)c1OC                   TGI            > 100 µM
 5     CC(=O)/C(=C/N1CCNC1=S)C(=O)Nc1ccccc1C                   TGI            > 100 µM
 6                        C=C1CN(C2=NCCO2)C1                   TGI            > 100 µM
 7  CC1=NN(c2nc(N)nc(/C=C\c3ccc([N+](=O)[O-])s3)n2)C(C)(C)C1                   TGI            > 100 µM
 8  CCN1CCC(O)(/C=C/c2ccc(C(C)C)cc2)C(C(=O)/C=C/c2ccc(C(C)C)cc2)C1 (stereo not drawn)                   TGI             > 29 µM
 9  Cn1c(=O)c2/c(n(C)c1=O)=N\C=c1\c(=O)n(C)c(=O)n(C)\c1=N\C=2                   TGI            > 100 µM
10      O=C(O)c1cc2ccccc2c2c1C(=O)c1ccccc1-2                   TGI            > 100 µM
11                Cc1ccc(NC(=O)CSC(N)=O)cc1C                   TGI            > 100 µM
12     CN(C)CC/C(=N\Nc1ccc(Cl)cc1Cl)c1ccccc1                   TGI             33.4 µM
13  O=c1[nH]c(=S)c2cc3c(=S)[nH]c(=O)n(CCO)c3nc2n1CCO                   TGI            > 100 µM
14  Cc1ccc([C@]2(C)CC[C@H](C)/C2=C\Br)c(O)c1                   TGI             11.1 µM
15  C=C1C(=O)OC2CC3(C)OC3CC/C(C)=C/C(OC(C)=O)C12 (stereo not drawn)                   TGI             15.4 µM
16  Cc1ccc([N+](=O)[O-])c2c(NCC(O)CO)ccnc12 (stereo not drawn)                   TGI            > 100 µM
17  Cn1cc(C2=C(N3CCOCC3)C(=O)NC2=O)c2ccccc21                   TGI             > 25 µM
